Reported LD50 at 72 h values for the following molecules.
ASSAY_SUMMARY: Acute toxicity test (Test Example 3)
ASSAY_CONDITIONS: mouse, in vivo, po

// known answers, use as guide
{"MOLECULE": "COc1cc(NC(=O)N2CCCC2=O)cc(OC)c1OC", "TEST_VALUE": "5000 mg/kg"}
{"MOLECULE": "O=C1CCCN1C(=O)Nc1cccc2c1CCCC2", "TEST_VALUE": "> 5000 mg/kg"}
{"MOLECULE": "O=C1CCCN1C(=O)Nc1nccs1", "TEST_VALUE": "5000 mg/kg"}

Now for the molecule whose LD50 at 72 h we want.
INPUT: Data request, read-out LD50 at 72 h, for "O=C1CCCN1C(=O)Nc1ccc(Cl)cc1"
OUTPUT: > 2000 mg/kg

###

ASSAY_SUMMARY: Reversal activity of amnesia (Test Example 1): scopolamine-induced amnesia, step-through passive avoidance, antiamnesia effect
Type: in vivo, rats (Wistar, males)
ASSAY_CONDITIONS: 30 mg/kg oral; rat; retention test 24 hours after acquisition; scopolamine 0.5 mg/kg s.c.; vs control group; read-out: Antiamnesia effect [increase ratio (%) of the step-through latency]
Protocol: Reversal activity of amnesia Groups of 6 to 16 rats (Wistar, males, weighing 170 to 240 g) were used for the experiment. Scopolamine was used as dissolved in physiological saline, and the test compound as dissolved or suspended in 0.5% solution of sodium carboxymethyl cellulose. Scopolamine was subcutaneously given at a dose of 0.5 mg/kg 30 minutes before aquisition trials. The test compound was orally given immediately after the aquisition trials. […]
Attribute: change in vivo at 30 mg/kg
Express your answer in %, writing the number without its unit.

{"MOLECULE": "COc1cc(NC(=O)N2CCCC2=O)cc(OC)c1OC [Compound 7]", "change in vivo at 30 mg/kg [%]": -10}
{"MOLECULE": "COc1ccc(NC(=O)N2CCCC2=O)cc1OC [Compound 6]", "change in vivo at 30 mg/kg [%]": 138}
{"MOLECULE": "COc1ccc(NC(=O)N2C(=O)CCC2C)cc1 (stereo not drawn) [Compound 15]", "change in vivo at 30 mg/kg [%]": 25}

INPUT: Would you mind telling me what change in vivo at 30 mg/kg value was observed for O=C1CCCN1C(=O)Nc1cccc2c1CCCC2 [Compound 8] ?
OUTPUT: 531

INPUT: Can you check O=C1CCCN1C(=O)Nc1ccccc1 [Compound 1] next?
OUTPUT: 623

INPUT: What do you get for O=C1CCCN1C(=O)Nc1nccs1 [Compound 10] ?
OUTPUT: 166

###

ASSAY_SUMMARY: Antianoxic activity test (Test Example 2): effect on the survival time under low-oxygen load at atmospheric pressure
Type: in vivo, mice (ddY, five-week-old males)
ASSAY_CONDITIONS: 300 mg/kg oral; mouse; 96% nitrogen and 4% oxygen; vs control group; read-out: Antianoxia activity [increase ratio (%) of the survival time]
Listed below: ILS at 300 mg/kg values for each entry.
Response body: numeric value in %, unit text excluded.

Here are 8 molecules together with their reported answers.
{"MOLECULE": "CC1CCN(C(=O)Nc2ccccc2)C1=O (stereo not drawn)", "UNITS_OF_MEASURE": "%", "ILS at 300 mg/kg": 37}
{"MOLECULE": "O=C1CCCN1C(=O)Nc1ccc(Cl)cc1", "UNITS_OF_MEASURE": "%", "ILS at 300 mg/kg": 46}
{"MOLECULE": "COc1ccc(NC(=O)N2CCCC2=O)cc1", "UNITS_OF_MEASURE": "%", "ILS at 300 mg/kg": 27}
{"MOLECULE": "COc1ccc(NC(=O)N2C(=O)CCC2C)cc1 (stereo not drawn)", "UNITS_OF_MEASURE": "%", "ILS at 300 mg/kg": 11}
{"MOLECULE": "COc1ccc(NC(=O)N2CCC(C)C2=O)cc1 (stereo not drawn)", "UNITS_OF_MEASURE": "%", "ILS at 300 mg/kg": 34}
{"MOLECULE": "COc1ccc(NC(=O)N2CC(O)CC2=O)cc1 (stereo not drawn)", "UNITS_OF_MEASURE": "%", "ILS at 300 mg/kg": 63}
{"MOLECULE": "O=C1CCC(CO)N1C(=O)Nc1ccccc1 (stereo not drawn)", "UNITS_OF_MEASURE": "%", "ILS at 300 mg/kg": 89}
{"MOLECULE": "O=C1CCCN1C(=O)Nc1cccc2c1CCCC2", "UNITS_OF_MEASURE": "%", "ILS at 300 mg/kg": 20}

# context switch: different molecule, same ILS at 300 mg/kg
INPUT: Find the recorded ILS at 300 mg/kg belonging to O=C1CC(O)CN1C(=O)Nc1ccccc1 (stereo not drawn) and report it.
OUTPUT: 96

###

The reader will find reported LD50 at 72 h values listed item by item below.
ASSAY_SUMMARY: Acute toxicity test (Test Example 3)
ASSAY_CONDITIONS: in vivo; oral; mouse; observed for 3 days
Method: Mice (ddY, five-week-old males) were used in groups of 4 to 5 mice each. The test compound was dissolved or suspended in 0.5% solution of sodium carboxymethyl cellulose and administered orally. […] Many of the test compounds produced symptoms of sedation or mascular relaxation for 30 minutes to 6 hours, followed by gradual recovery. The original state was restored two days later.

{"COMPOUND": "O=C1CCCN1C(=O)Nc1ccncc1 [Compound 9]", "LD50 at 72 h": "< 5000 mg/kg"}
{"COMPOUND": "COc1ccc(NC(=O)N2CCC(C)C2=O)cc1 (centres unmarked) [Compound 14]", "LD50 at 72 h": "> 5000 mg/kg"}

INPUT: // returns reported LD50 at 72 h for input COc1ccc(NC(=O)N2CCCC2=O)cc1 [Compound 2]
OUTPUT: > 5000 mg/kg

INPUT: And CN(C)c1ccc(NC(=O)N2CCCC2=O)cc1 [Compound 5] ?
OUTPUT: < 5000 mg/kg

INPUT: Queued: O=C1CCC(CO)N1C(=O)Nc1ccccc1 (centres unmarked) [Compound 16]
OUTPUT: 5000 mg/kg

###

ASSAY_SUMMARY: Reversal activity of amnesia (Test Example 1): scopolamine-induced amnesia, step-through passive avoidance, antiamnesia effect
Format: in vivo, rats (Wistar, males)
ASSAY_CONDITIONS: 30 mg/kg oral; rat; retention test 24 hours after acquisition; scopolamine 0.5 mg/kg s.c.; vs control group; read-out: Antiamnesia effect [increase ratio (%) of the step-through latency]
Label label 1 when change in vivo at 30 mg/kg is strictly below 300%; otherwise label label 0.

Answered cases to consult:
{"MOLECULE": "O=C1CC(O)CN1C(=O)Nc1ccccc1 (stereo not drawn)", "LABEL": "label 0"}
{"MOLECULE": "O=C1CCCN1C(=O)Nc1ccncc1", "LABEL": "label 1"}
{"MOLECULE": "CN(C)c1ccc(NC(=O)N2CCCC2=O)cc1", "LABEL": "label 0"}
{"MOLECULE": "COc1ccc(NC(=O)N2CCC(C)C2=O)cc1 (stereo not drawn)", "LABEL": "label 1"}
{"MOLECULE": "O=C1CCC(CO)N1C(=O)Nc1ccccc1 (stereo not drawn)", "LABEL": "label 1"}

INPUT: Given "COc1ccc(NC(=O)N2CCCC2=O)cc1" , is recorded change in vivo at 30 mg/kg strictly lower than 300%?
OUTPUT: label 0

###

ASSAY_SUMMARY: Antianoxic activity test (Test Example 2): effect on the survival time under low-oxygen load at atmospheric pressure
Assay type: in vivo, mice (ddY, five-week-old males)
ASSAY_CONDITIONS: 100 mg/kg oral; mouse; 96% nitrogen and 4% oxygen; vs control group; read-out: Antianoxia activity [increase ratio (%) of the survival time]
Below, each of the molecules is paired with its reported ILS at 100 mg/kg value.
# value in %; strip the unit string

{"MOLECULE": "O=C1CCCN1C(=O)Nc1nccs1", "TEST_VALUE": -1}
{"MOLECULE": "COc1ccc(NC(=O)N2CCCC2=O)cc1OC", "TEST_VALUE": -4}

INPUT: Please give the measured ILS at 100 mg/kg for this molecule: COc1ccc(NC(=O)N2CCC(C)C2=O)cc1 (stereo not shown)
OUTPUT: 26

INPUT: Please answer likewise for "O=C1CCCN1C(=O)Nc1cccc2c1CCCC2"
OUTPUT: 25

###

ASSAY_SUMMARY: Acute toxicity test (Test Example 3)
ASSAY_CONDITIONS: mouse, in vivo, po
# reported LD50 at 72 h; entries follow

These recorded examples may help you get a feel for the data.
{"MOLECULE": "COc1ccc(NC(=O)N2C(=O)CCC2C)cc1 (stereo not shown) [Compound 15]", "LD50 at 72 h": "> 5000 mg/kg"}
{"MOLECULE": "O=C1CCCN1C(=O)Nc1ccccc1 [Compound 1]", "LD50 at 72 h": "> 5000 mg/kg"}
{"MOLECULE": "COc1ccc(NC(=O)N2CCCC2=O)cc1OC [Compound 6]", "LD50 at 72 h": "> 5000 mg/kg"}

INPUT: Please report the recorded LD50 at 72 h for CC1CCN(C(=O)Nc2ccccc2)C1=O (stereo not shown) [Compound 13] .
OUTPUT: > 2000 mg/kg
